biological target: Beta-1 adrenergic receptor (Cavia porcellus, UniProt B0FL73); assay: Beta-1 adrenergic receptor blocking was assessed from 50% inhibition of the isoproterenol submaximal response on isolated Guinea pig atria(IA)
Sequence (B0FL73 whole entry): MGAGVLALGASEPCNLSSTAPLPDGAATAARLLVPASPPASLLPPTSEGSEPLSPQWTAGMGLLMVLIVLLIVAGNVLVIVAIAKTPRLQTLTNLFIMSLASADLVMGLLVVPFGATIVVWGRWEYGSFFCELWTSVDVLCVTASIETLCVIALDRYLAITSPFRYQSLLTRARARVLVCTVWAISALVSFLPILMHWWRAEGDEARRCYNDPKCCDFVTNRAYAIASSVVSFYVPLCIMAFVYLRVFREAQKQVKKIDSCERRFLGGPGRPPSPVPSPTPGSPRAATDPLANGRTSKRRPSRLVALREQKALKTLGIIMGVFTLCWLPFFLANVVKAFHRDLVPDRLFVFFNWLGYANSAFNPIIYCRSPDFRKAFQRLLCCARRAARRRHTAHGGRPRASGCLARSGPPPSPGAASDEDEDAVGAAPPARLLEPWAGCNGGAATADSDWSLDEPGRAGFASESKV
pIC50: −log10 of the molar value.
EXPERIMENTAL_READOUT: pIC50

Solved entries (count: 3):
{"columns": ["COMPOUND", "pIC50"],
 "data": [
  ["CC(C)NCC(O)CO/N=C1/c2ccccc2C2CCCCCC12O (centres undefined)", 6.05],
  ["COC12CCCCCC1c1ccccc1/C2=N/OCC(O)CNC(C)C (centres undefined)", 5.52],
  ["COC12CCCCC1c1ccc(F)cc1/C2=N/OCC(O)CNC(C)(C)C (centres undefined)", 6.08]
]}

(1) COC12CCCCC1c1ccccc1/C2=N/OCC(O)CNC(C)C (centres undefined)
(2) CC(C)(C)NCC(O)CO/N=C1/c2ccccc2C2CCCCC12O (centres undefined)
Problem: Return label of the item with the larger pIC50. Candidates: 1 , 2 . Lab log: write the label of the selected item as the result.
Result: 1

###

biological target: Beta-2 adrenergic receptor (Cavia porcellus, UniProt Q8K4Z4); experiment: Beta-2 adrenergic receptor blocking was assessed from 50% inhibition of the isoproterenol submaximal response on isolated Guinea pig trachea(IT)
Sequence (Q8K4Z4 whole entry): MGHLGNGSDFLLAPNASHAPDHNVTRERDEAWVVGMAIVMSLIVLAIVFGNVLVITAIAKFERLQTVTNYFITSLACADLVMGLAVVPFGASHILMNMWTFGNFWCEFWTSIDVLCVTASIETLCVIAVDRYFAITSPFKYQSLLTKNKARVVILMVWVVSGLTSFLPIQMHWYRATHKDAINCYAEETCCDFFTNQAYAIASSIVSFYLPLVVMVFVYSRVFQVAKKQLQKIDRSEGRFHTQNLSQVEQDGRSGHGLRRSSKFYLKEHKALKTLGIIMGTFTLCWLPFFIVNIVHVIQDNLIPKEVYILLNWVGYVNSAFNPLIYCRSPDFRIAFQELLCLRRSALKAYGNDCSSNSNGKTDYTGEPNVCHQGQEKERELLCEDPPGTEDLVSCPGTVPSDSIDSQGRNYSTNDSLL
EXPERIMENTAL_READOUT: IC50 (µM)

Solved entries (count: 3):
{"columns": ["COMPOUND", "IC50 / µM"],
 "data": [
  ["COC12CCCCC1c1ccccc1/C2=N/OCC(O)CNC(C)C (centres undefined)", 0.3],
  ["COC12CCCCC1c1ccccc1/C2=N/OCC(O)CNC(C)(C)C (centres undefined)", 0.035],
  ["CC(C)(C)NCC(O)CO/N=C1/c2ccccc2C2CCCCCC12O (centres undefined)", 0.44]
]}

(P) COC12CCCCC1c1ccc(F)cc1/C2=N/OCC(O)CNC(C)C (centres undefined)
(Q) CC(C)(C)NCC(O)CO/N=C1/c2ccccc2C2CCCCC12OCCO (centres undefined)
(R) CC(C)(C)NCC(O)CO/N=C1/c2ccccc2C2CCCCC12O (centres undefined)
Problem: Arrange the 3 compounds by rising IC50, starting with the smallest. Reply format: the labels, ordered as requested.
Result: P, Q, R
(P: 0.79 µM, Q: 3.1 µM, R: 31 µM)

###

target: Beta-1 adrenergic receptor (Cavia porcellus); assay: Beta-1 adrenergic receptor blocking was assessed from 50% inhibition of the isoproterenol submaximal response on isolated Guinea pig atria(IA)
EXPERIMENTAL_READOUT: IC50 (µM)

{"columns": ["MOLECULE", "IC50 / µM"],
 "data": [
  ["CC(C)(C)NCC(O)CO/N=C1/c2ccccc2C2CCCCCC12O (centres undefined)", 0.34],
  ["COC12CCCCCC1c1ccccc1/C2=N/OCC(O)CNC(C)(C)C (centres undefined)", 0.16],
  ["COC12CCCCC1c1ccccc1/C2=N/OCC(O)CNC(C)(C)C (centres undefined)", 12]
]}

(P) COc1cc(CCNCC(O)CO/N=C2/c3ccccc3C3CCCCCC23OC)cc(OC)c1 (centres undefined)
(Q) CC(C)(C)NCC(O)CO/N=C1/c2ccccc2C2CCCCC12OCCO (centres undefined)
(R) COC12CCCCC1c1ccc(F)cc1/C2=N/OCC(O)CNC(C)C (centres undefined)
Problem: Please give the order of these molecules when sorted by IC50, largest value leading. Reply format: the labels, ordered as requested.
Result: R, P, Q
